From: the Immune Epitope Database (IEDB)

biological target: HLA-B*27:05; experiment: IEDB peptide-MHC binding, purified MHC/direct/fluorescence; filed as Kd, often an IC50 or EC50 that approximates it; bounds were set here for any values at or beyond the usual limits of such assays; conditions: source organism: Shigella flexneri
pKd: −log10 of the molar value.
measured.parameter: pKd

INPUT: Give pKd for DRLHPPNKL
OUTPUT: ≤ 4.70

###

target: HLA-A*11:01; test: IEDB peptide-MHC binding, purified MHC/competitive/radioactivity; filed as Kd, often an IC50 or EC50 that approximates it; bounds were set here for any values at or beyond the usual limits of such assays; settings: source organism: Dengue virus 3 Martinique/1243/1999
measured.parameter: Kd (µM)
# value in µM; strip the unit string

INPUT: State recorded Kd with HLA-A*11:01, entry AGLAFSIMK , no comment.
OUTPUT: 0.0138

INPUT: Look up and report measured Kd (HLA-A*11:01) for the following sequence: KTQVGVGVQK
OUTPUT: 0.0595

INPUT: Lab note: record Kd of MTHRRPTIEK tested on HLA-A*11:01.
OUTPUT: 0.117

INPUT: State, for HLA-A*11:01, measured Kd of the sequence listed here: TILIKVEYK
OUTPUT: 1.25
